Source of measurements: ChEMBL document CHEMBL1158479

# Tested on: glutathione S-transferase
# Procedure summary: Stability assessed as half life in presence of rat glutathione S-transferase
# Type: ADME
Attribute measured: half-life (min)
One number for each entry, in min.

Query half-life on glutathione S-transferase for "CC(=O)/C=C/Sc1ccc(O)cc1"
2.2

Shift focus to the following entry.
Give recorded half-life with glutathione S-transferase for the following compound: "CC(=O)/C=C\Sc1ccc(O)cc1"
7.24
